Where do the numbers come from? From patent US20220411492A1.

molecular target: murine CLDN18.2 (mCLDN18.2) (murine) (UniProt P56857); experiment: FACS, HEK293-mCLDN18.2 cells
EXPERIMENTAL_ENDPOINT: Mean maximum fluorescence intensity (Top MFI)
The reply should be a number in MFI, with the unit left off.

• ch-287F12 (antibody, V domains shown, also called chimeric antibody of clone 287F12) VH: QIQLVQSGPELKRPGETVRISCKASGFTFTTAGMHWVQKMAGKGLKWLGWTNTHSGEPKYAEDFKGRFAFSLDTSGSDAYLQIGNLKYEDAATYFCAKWGRGNALDYWGQGTSVTVSS VL: DIVMTQSPSSLTVTAGEKVTMTCKSSQSLLNSGNQKNYLTWYQQKPGQPPKLLIYWASTRESGVPDRFTGSGSGTDFTLTINTVQAEDLAVYYCQNTYSYPLTFGGGTKLELR = 10200
• ch-253C4 (antibody, V domains shown, also called chimeric antibody of clone 253C4) VH: QVQLKQSGAELVRPGASVSLSCKTSGYIFTSYWIHWVKQRSGQGLEWIGRFYPGTGTAYYNENFEGKATLTADRSSSTAYMQLSSLKSDDSAVYFCTREGYGKGNAMDYWGQGTSVTVSS VL: DIVMTQSPSSLTVTTGEKVTLSCKSSQSLLNSGNQKNYLTWYQQKSGQPPELLIYWASTRESGVPDRFTGSGSGTDFTLTVSSVQAEDLAVYYCQNDYYFPFTFGGGTKLEIK = 8330

Alright, here's another binder for you.
Form: binder = hu253C4-N31Q-2 (antibody, V domains shown) VH: QVQLVQSGAEVKKPGASVKVSCKASGYIFTSYWIHWVRQAPGQGLEWMGRFYPGTGTAYYNENFEGRVTMTRDTSISTAYMELSRLRSDDTAVYYCAREGYGKGNSMDYWGQGTTVTVSS VL: DIVMTQSPDSLAVSLGERVTLNCKSSQSLLQSGNQKNYLTWYQQKPGQPPKLLIYWASTRESGVPDRFSGSGSGTDFTLTVSSVQAEDVAVYYCQNDYYFPFTFGGGTKLEIK ; Mean maximum fluorescence intensity (Top MFI) = 36800
